# Tested System: Histone-lysine N-methyltransferase EHMT2 (Homo sapiens)
# Protocol: qHTS Assay for Inhibitors of Histone Lysine Methyltransferase G9a; further: nearly all actives have a fitted effect of over 75% in size
# Condition Summary: G9a H3K9 monomethylation, AlphaScreen, 2 h; series mostly up to 59 µM
In all, about 350,000 compounds went through this assay and about 31,000 (8.9%) were called active. Roughly 15% stayed inconclusive and do not appear here. The call rests on the fitted dose curve; in most records, active means well fitted inhibition curve with a large enough effect; inconclusive means small, poorly fitted or top-dose-only effect; inactive means no such curve, though single readings can be large or run the other way. The sample as a whole holds a higher share of actives than the screen did.
Labels: active, inactive

{"Compound": "COc1ccc(CCC(=O)NCc2ccc3c(c2)CCN3C(=O)c2ccc(F)cc2)cc1", "Category": "inactive"}
{"Compound": "C(=N/N1CCN(c2ccccc2)CC1)/c1cccs1", "Category": "active"}
{"Compound": "COc1ccc(-c2cn3c(n2)sc2cc(C(=O)Nc4ccc(F)cc4)ccc23)cc1", "Category": "inactive"}
{"Compound": "CC1CCN(S(=O)(=O)c2ccc3c(ccn3CCC(=O)NCc3ccc(N(C)C)cc3)c2)CC1", "Category": "active"}
{"Compound": "O=C(CCn1ccc2cc(S(=O)(=O)N3CCCC3)ccc21)NCc1cccc(Cl)c1", "Category": "inactive"}
{"Compound": "Nc1nnnn1/N=C/c1cccs1", "Category": "inactive"}
{"Compound": "CC(C)OC(=O)CN1CCN(c2ccc(Cl)cc2)CC1", "Category": "inactive"}
{"Compound": "O=C(Cc1ccc(Cl)cc1)Nc1ccc2nn(-c3ccc(Cl)cc3)nc2c1", "Category": "inactive"}
{"Compound": "Cc1nn(-c2ccccc2)c2c1c(C)c(CCC(=O)NCC1CCCO1)c(=O)n2C (stereo unspecified)", "Category": "inactive"}
{"Compound": "COc1cc(OC)cc(C(=O)NNC(=O)CNC(=O)c2ccc(Br)o2)c1", "Category": "inactive"}
{"Compound": "Cc1ccc(Cl)cc1NC(=O)CN1CCN(S(=O)(=O)N2CCOCC2)CC1", "Category": "inactive"}
